target: T1, Proleukin® (aldesleukin) (human, UniProt P60568 21-153, limits assumed); experiment: ELISA, coated Proleukin, HEK293F supernatant 1:2
T1 construct: Variant of human wt IL-2 with C145S (C125S on mature IL-2); also called IL-2 (Proleukin®); human IL-2 (Proleukin)
T1 sequence (P60568 other isoform, or with tags, fused parts or gaps limits assumed): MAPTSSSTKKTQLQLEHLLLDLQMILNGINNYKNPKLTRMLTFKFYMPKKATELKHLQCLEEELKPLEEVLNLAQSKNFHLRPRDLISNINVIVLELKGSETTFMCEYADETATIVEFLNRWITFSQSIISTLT
Quantity: ELISA value (wash 3x every hour for 12 HRS) (luminescence signal)
Express your answer in luminescence signal, writing the number without its unit.

Q: I'd like to know its ELISA value (wash 3x every hour for 12 HRS). The binder in question is Antibody No: 11 (antibody, human IgG1, kappa, N297A, V domains shown, VH N58Y; VK WT; HEK293F supernatant) VH: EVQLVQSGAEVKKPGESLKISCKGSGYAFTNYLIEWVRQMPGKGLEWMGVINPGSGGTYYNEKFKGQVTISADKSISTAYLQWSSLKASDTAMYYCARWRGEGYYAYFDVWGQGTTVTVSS VL: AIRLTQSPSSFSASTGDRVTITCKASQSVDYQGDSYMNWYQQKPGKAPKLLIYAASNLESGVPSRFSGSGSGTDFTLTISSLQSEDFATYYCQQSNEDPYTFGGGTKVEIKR
Result: 3500

Q: I'd like to know its ELISA value (wash 3x every hour for 12 HRS). The binder in question is Antibody No: 25 (antibody, human IgG1, kappa, N297A, V domains shown, VK M33L + A50S; HEK293F supernatant) VH: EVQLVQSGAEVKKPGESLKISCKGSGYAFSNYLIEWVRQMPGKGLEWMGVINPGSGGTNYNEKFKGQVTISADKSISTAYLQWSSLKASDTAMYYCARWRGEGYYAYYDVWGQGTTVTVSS VL: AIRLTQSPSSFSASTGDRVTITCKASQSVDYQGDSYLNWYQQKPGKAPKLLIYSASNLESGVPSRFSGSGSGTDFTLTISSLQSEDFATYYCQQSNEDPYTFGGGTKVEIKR
Result: 1080
